- assayed.target: NADPH oxidase 5 (Homo sapiens)
- protocol.text: NOX5-dependent H2O2 signal modulators, primary screen, NOX inhibitor project, cell-based, HEK293-NOX5, Amplex Red fluorescence (AID 1161)
- study.conditions: HEK293-NOX5, ionomycin, 45 min, higher = more signal
Recorded z-score values for a group of compounds are listed next.
Lab note: write the figure by itself, no unit.

compound="CC(=O)OC[C@H]1O[C@H](CC=NOC(C)CN2CCCc3nc(C)c(C)cc32)C=C[C@@H]1OC(C)=O (stereo partly drawn)" measurement_type=z-score experimental_value=-0.898
compound="O=C1CCCC=C1C(O)C1CCCCC1 (stereo not drawn)" measurement_type=z-score experimental_value=-0.928
compound=COc1ccc(COC(=O)NN=C2C[C@@H](O)[C@@H](O)[C@@H]3[C@@H]4C(=O)N(C(C)(C)C)C(=O)[C@@H]4CC[C@@H]23)cc1 measurement_type=z-score experimental_value=0.315
compound="COC(=O)[C@H](C)NC(=O)CCC1CC(OC(=O)NCc2cccc3ccccc23)CC2(CCCC(COC(=O)NCCOc3ccccc3)O2)O1 (stereo partly drawn)" measurement_type=z-score experimental_value=-0.19
compound=Cc1ccc(S(=O)(=O)N[C@@H]2COC(=O)CC=C[C@@H](C)[C@H](NS(=O)(=O)c3ccc(C)cc3)COC(=O)[C@H](C)NC(=O)CC=C[C@H]2C)cc1 measurement_type=z-score experimental_value=-0.545

-- ask Check the records and state z-score for `COC(=O)[C@@H]1CC[C@H](C)[C@@H](c2ccc(Br)cc2)N1`
-- reply -0.595

-- ask Check the records and state z-score for `COc1ccc(O[C@H]2C=C[C@@H](c3ccccc3)O[C@@H]2COC(=O)NCc2cccc3ccccc23)cc1`
-- reply -0.406

-- ask Check the records and state z-score for `CC(CCN1CCCCc2nc(C)c(C)cc21)=NO[C@@H](C)c1cc(-c2c(C)cc(C)cc2C)no1`
-- reply -2.5

---

- assayed.target: Neurogenic locus notch homolog protein 3 (Homo sapiens)
- protocol.text: NOTCH3 binders on small-molecule microarray, primary screen, biochemical, 635/667 nm fluorescence (AID 1096)
- study.conditions: NOTCH3 binding, 635 nm fluorescence, higher = more signal
Recorded composite z-score values for a group of compounds are listed next.
Lab note: write the figure by itself, no unit.

The examples below pair each entry with its known result.
compound=CCN1C(=O)[C@H]2[C@H]3[C@H](O)[C@H](O)CC(=NO[C@@H](C)c4cc(-c5c(C)cc(C)cc5C)no4)[C@@H]3CC[C@H]2C1=O experimental_value=0.994
compound=C#CCCCON=C1C[C@@H](O)[C@@H](O)[C@@H]2[C@@H]3C(=O)N(C[C@@H]4CCCO4)C(=O)[C@@H]3CC[C@@H]12 experimental_value=0.752
compound=C[C@H]1CC[C@H]2C(=O)O[C@H](CO)CN2[C@@H]1c1ccc(Br)cc1 experimental_value=-0.811
compound="O=C1CCCC=C1C(O)COCc1ccccc1 (stereo unspecified)" experimental_value=-0.256
compound="COC(=O)[C@H](C)NC(=O)CCC1CC(OC(=O)NCc2cccc3ccccc23)CC2(CCCC(COC(=O)NCc3cccc(C(F)(F)F)c3)O2)O1 (stereo partly specified)" experimental_value=1.09

-- ask Check the records and state composite z-score for `COc1ccc(OC[C@@H](CO)OC)cc1`
-- reply -0.176

-- ask Check the records and state composite z-score for `C[C@@H]1CC[C@H]2C(=O)N3[C@@H](CC[C@@H](C)[C@@H]3c3ccc(Br)cc3)C(=O)N2[C@H]1c1ccc(Br)cc1`
-- reply 0.305

-- ask Check the records and state composite z-score for `O=C1C[C@@H](O)[C@@H](O)[C@@H]2[C@@H]3C(=O)N(C4CCCCC4)C(=O)[C@@H]3CC[C@@H]12`
-- reply 0.57

-- ask Check the records and state composite z-score for `O=C1C2=CC[C@H]3C(=O)N(c4ccc(F)cc4F)C(=O)[C@H]3[C@H]2[C@H](O)[C@@H]2O[C@H]12`
-- reply 0.634

-- ask Check the records and state composite z-score for `COc1ccc(O[C@H]2C=C[C@@H](c3ccccc3)O[C@@H]2COC(=O)CCC(C)=NOC[C@@H](O)COCc2ccco2)cc1`
-- reply -1.74
